system name: Metabotropic glutamate receptor 8 (Rattus norvegicus) (UniProt P70579)
Sequence (P70579 whole entry, looked up): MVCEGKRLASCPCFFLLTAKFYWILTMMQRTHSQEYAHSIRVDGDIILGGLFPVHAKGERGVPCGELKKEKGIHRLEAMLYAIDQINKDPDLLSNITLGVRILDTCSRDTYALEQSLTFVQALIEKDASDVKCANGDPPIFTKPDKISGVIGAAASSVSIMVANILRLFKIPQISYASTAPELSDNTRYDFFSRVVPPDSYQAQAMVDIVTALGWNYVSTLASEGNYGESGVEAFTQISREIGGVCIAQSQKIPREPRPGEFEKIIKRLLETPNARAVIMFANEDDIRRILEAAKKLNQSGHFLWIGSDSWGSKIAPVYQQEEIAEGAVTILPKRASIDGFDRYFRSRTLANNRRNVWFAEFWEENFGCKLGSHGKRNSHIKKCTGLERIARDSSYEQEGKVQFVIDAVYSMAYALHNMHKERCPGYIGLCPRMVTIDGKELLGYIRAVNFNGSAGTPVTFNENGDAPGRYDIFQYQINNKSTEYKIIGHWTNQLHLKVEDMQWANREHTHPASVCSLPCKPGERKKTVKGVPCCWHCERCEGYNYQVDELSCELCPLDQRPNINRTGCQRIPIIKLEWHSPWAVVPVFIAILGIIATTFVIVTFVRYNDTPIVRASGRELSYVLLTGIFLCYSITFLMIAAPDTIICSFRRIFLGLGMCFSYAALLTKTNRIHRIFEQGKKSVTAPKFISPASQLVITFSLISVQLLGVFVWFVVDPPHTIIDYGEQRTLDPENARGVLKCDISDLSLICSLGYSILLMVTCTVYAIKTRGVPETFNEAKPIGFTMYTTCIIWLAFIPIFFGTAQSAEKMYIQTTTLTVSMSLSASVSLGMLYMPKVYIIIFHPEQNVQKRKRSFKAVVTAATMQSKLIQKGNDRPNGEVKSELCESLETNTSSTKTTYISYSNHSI
assay text: mGluR8 Gi/Go-coupled signaling modulation – cell-based, rat, thallium flux, HTS, primary screen (AID 488969)
condition info: HEK293 rat mGluR8, GIRK thallium flux, FluoZin2; at 10 µM; stronger effect = higher value; submaximal glutamate (EC20) added with thallium
Whole data set: some 110,000 compounds, median “z-score” near -0.1, cut for the highest 2% near 2. The list comes from a sample in which the highest values are over-represented; it also holds close analogues and randomly drawn compounds.
Kindly return y if reported z-score is no lower than 0.06; return n if it is lower.

Here's what some known entries look like.
Evaluate CC(C(=O)NCCN1C(=O)S/C(=C\c2cccs2)C1=O)N1C(=O)c2ccccc2C1=O (stereo unspecified) : z-score at minimum 0.06?
n

Evaluate Cc1ccc(C2C3=C(NCCN=C3c3ccccc3)C(=O)N2c2ccccc2)cc1 (stereo unspecified) : z-score at minimum 0.06?
y

Evaluate Cc1cc(/C=N/NC(N)=O)c(C)c(CO)c1 : z-score at minimum 0.06?
n

Evaluate N#CCCN(C(=O)CSc1nc(-c2ccccc2)cn1N)c1ccc(F)cc1 : z-score at minimum 0.06?
n

Evaluate Cc1sc2nc(C3CC3)nc(SCC(=O)NCc3ccco3)c2c1C : z-score at minimum 0.06?
y

Continuing:
Evaluate COc1cc(C(=S)N2CCCC2)cc(OC)c1O : z-score at minimum 0.06?
y

Evaluate CCOc1ccccc1C(=O)N(Cc1ccco1)C1CCS(=O)(=O)C1 (stereo unspecified) : z-score at minimum 0.06?
n

Evaluate O=S(=O)(Cc1ccccc1)N1CCCC(c2nc(-c3ccc(F)cc3)no2)C1 (stereo unspecified) : z-score at minimum 0.06?
n

Evaluate FC(F)(F)c1nc2ccccc2nc1N/N=C\c1ccccc1 : z-score at minimum 0.06?
y

* * *

system name: Metabotropic glutamate receptor 8 (Rattus norvegicus) (UniProt P70579)
assay text: mGluR8 Gi/Go-coupled signaling modulation – cell-based, rat, thallium flux, HTS, primary screen (AID 488969)
condition info: HEK293 rat mGluR8, GIRK (G protein-gated inwardly rectifying potassium channel) thallium flux, FluoZin2; at 10 µM; stronger effect = higher value; submaximal glutamate (EC20) added with thallium
In all, about 110,000 compounds were measured (“z-score”: median about -0.1, highest 2% from about 2 on). The sample as a whole holds a higher share of the highest values than the screen did.
Kindly return criterion met if reported z-score is no lower than -0.1; return criterion not met if it is lower.

Here's what some known entries look like.
Evaluate Cc1ccc(N2C(N)=NC(N)=NC23CCCC3)c(C)c1 : z-score at minimum -0.1?
criterion met

Evaluate CC(C)Cn1cc(C(=O)NC2CCN(Cc3ccccc3)CC2)c2c3ccccc3n(C)c2c1=O : z-score at minimum -0.1?
criterion not met

Evaluate O=C(CCC(=O)OCc1ccc(Br)cc1)Nc1ccccc1 : z-score at minimum -0.1?
criterion met

Evaluate O=C(CS(=O)CC(=O)N(c1ccccc1)C(C(=O)NC1CCCCC1)c1ccco1)Nc1ccc(F)cc1 (stereo unspecified) : z-score at minimum -0.1?
criterion not met

Evaluate Cc1cccc(N2C(N)=NC(N)=NC23CCCCC3)c1 : z-score at minimum -0.1?
criterion met

Continuing:
Evaluate N=c1sccn1CC(=O)Nc1cc(Cl)ccc1Oc1ccccc1 : z-score at minimum -0.1?
criterion met

Evaluate Cc1cc(C)n(CC(O)CN(c2ccccc2)S(=O)(=O)c2ccccc2)n1 (stereo unspecified) : z-score at minimum -0.1?
criterion not met

Evaluate Cc1csc(NC(=O)C2CCCN(S(=O)(=O)c3cnc[nH]3)C2)n1 (stereo unspecified) : z-score at minimum -0.1?
criterion met

Evaluate CN(C)C(=O)C(=O)c1c(-c2ccccc2)cc2ccccn12 : z-score at minimum -0.1?
criterion not met

Evaluate COc1ccc(CCN2C(=O)CC(C(N)=O)SC2=Nc2ccccc2)cc1OC (stereo unspecified) : z-score at minimum -0.1?
criterion met

Evaluate COc1ccc(NS(=O)(=O)c2ccc(NC(=O)c3ccc(N(C)S(C)(=O)=O)cc3)cc2)c(OC)c1 : z-score at minimum -0.1?
criterion not met

Evaluate COc1cc(NCCCCCCCN)c2ncccc2c1 : z-score at minimum -0.1?
criterion met

Evaluate COC(=O)N/N=C\c1c(C)nn(-c2ccccc2)c1Cl : z-score at minimum -0.1?
criterion not met

Evaluate CCC(NC(=O)Nc1nnc(C(F)(F)F)s1)(C(F)(F)F)C(F)(F)F : z-score at minimum -0.1?
criterion met

Evaluate COc1nc(-c2ccccc2)ccc1-c1noc(-c2ccccc2F)n1 : z-score at minimum -0.1?
criterion met

Evaluate Cc1ccc(-n2c(SCC(=O)N3CC(=O)Nc4ccccc43)nc3ccccc3c2=O)cc1C : z-score at minimum -0.1?
criterion not met
